molecular target: PI3K p110δ/p85α (human) (Homo sapiens (Human), UniProt O00329); test: PI3K p110δ/p85α (human), non-radioactive assay (HTRF); assay type: biochemical; conditions: as printed:
Readout Kind: ratio IC50 (ATM) vs PI3Kdelta, selectivity with respect to PI3Kdelta

>  <Structure>
COc1cc2ncc3c(c2cc1-c1cnn(C)c1)n(-c1ncc(OC(F)F)cc1F)c(=O)n3C

>  <Target>
PI3K p110δ/p85α (human) (Homo sapiens (Human), UniProt O00329)

>  <Measured Value>
at least 2000 times

$$$$
>  <Structure>
COc1cc2ncc3c(c2cc1-c1cnn(C)c1)n(-c1ncc(N2CCNCC2)cc1F)c(=O)n3C

>  <Target>
PI3K p110δ/p85α (human) (Homo sapiens (Human), UniProt O00329)

>  <Measured Value>
at least 2000 times

$$$$
>  <Structure>
COc1cc2ncc3[nH]c(=O)n(-c4ncc(F)cc4F)c3c2cc1-c1cn(C)nc1C

>  <Target>
PI3K p110δ/p85α (human) (Homo sapiens (Human), UniProt O00329)

>  <Measured Value>
at least 2000 times

$$$$
>  <Structure>
CCc1cncc(F)c1-n1c(=O)n(C)c2cnc3cc(OC)c(-c4cn[nH]n4)cc3c21

>  <Target>
PI3K p110δ/p85α (human) (Homo sapiens (Human), UniProt O00329)

>  <Measured Value>
at least 2000 times

$$$$

###

Entries with reported IC50 on UniProt P48736
Sequence (P48736 whole entry): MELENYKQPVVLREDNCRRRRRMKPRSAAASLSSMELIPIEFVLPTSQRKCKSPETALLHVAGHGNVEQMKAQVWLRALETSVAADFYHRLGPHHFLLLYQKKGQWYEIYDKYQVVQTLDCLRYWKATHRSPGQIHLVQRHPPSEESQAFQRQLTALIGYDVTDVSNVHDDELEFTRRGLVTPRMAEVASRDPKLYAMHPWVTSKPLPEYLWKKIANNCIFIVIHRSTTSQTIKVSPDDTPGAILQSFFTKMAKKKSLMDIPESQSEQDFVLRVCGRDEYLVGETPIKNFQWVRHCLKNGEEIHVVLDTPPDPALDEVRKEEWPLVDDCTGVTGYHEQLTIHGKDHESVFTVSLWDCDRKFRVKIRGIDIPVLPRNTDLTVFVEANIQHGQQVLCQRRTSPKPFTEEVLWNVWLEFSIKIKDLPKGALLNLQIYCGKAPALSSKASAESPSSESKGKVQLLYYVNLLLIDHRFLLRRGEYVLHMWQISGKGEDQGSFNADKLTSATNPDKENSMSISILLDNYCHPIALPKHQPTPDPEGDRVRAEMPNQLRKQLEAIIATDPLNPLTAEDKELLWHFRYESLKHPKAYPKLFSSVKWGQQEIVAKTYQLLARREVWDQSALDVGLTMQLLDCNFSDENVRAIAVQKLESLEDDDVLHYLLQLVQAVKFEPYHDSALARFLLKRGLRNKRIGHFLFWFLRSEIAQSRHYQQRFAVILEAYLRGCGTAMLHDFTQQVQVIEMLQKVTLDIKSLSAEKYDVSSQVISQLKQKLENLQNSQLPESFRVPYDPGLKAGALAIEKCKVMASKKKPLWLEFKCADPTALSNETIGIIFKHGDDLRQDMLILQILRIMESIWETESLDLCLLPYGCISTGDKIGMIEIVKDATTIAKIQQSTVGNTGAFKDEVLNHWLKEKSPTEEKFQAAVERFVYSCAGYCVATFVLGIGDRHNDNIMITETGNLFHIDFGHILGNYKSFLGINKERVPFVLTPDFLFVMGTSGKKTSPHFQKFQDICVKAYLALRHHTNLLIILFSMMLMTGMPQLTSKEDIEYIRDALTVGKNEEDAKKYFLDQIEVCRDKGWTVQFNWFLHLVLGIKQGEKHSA

>  <Structure>
COc1cc2ncc3c(c2cc1-c1cn[nH]c1)n(-c1ccncc1F)c(=O)n3C

>  <IC50>
> 30 µM

$$$$
>  <Structure>
COc1cc2ncc3c(c2cc1-c1cnn(C)c1)n(-c1cn(C)nc1C)c(=O)n3C

>  <IC50>
> 30 µM

$$$$
>  <Structure>
COc1cc2ncc3c(c2cc1-c1cnn(C)c1)n(-c1ncc(F)cc1F)c(=O)n3C

>  <IC50>
> 30 µM

$$$$
>  <Structure>
COc1cc2ncc3c(c2cc1-c1cn[nH]c1)n(-c1ccncc1C)c(=O)n3C

>  <IC50>
> 30 µM

$$$$
>  <Structure>
COc1cc2ncc3c(c2cc1-c1cnn(C)c1)n(-c1ccncc1OC)c(=O)n3C

>  <IC50>
> 30 µM

$$$$
>  <Structure>
COc1cc2ncc3c(c2cc1-c1cn[nH]c1)n(-c1ncc(C)cc1F)c(=O)n3C

>  <IC50>
> 30 µM

$$$$
>  <Structure>
COc1cc2ncc3c(c2cc1-c1cnn(C)c1)n(-c1cn[nH]c1)c(=O)n3C

>  <IC50>
> 30 µM

$$$$
>  <Structure>
CCn1cc(-c2cc3c(cc2OC)ncc2c3n(-c3ccncc3)c(=O)n2C)cn1

>  <IC50>
> 30 µM

$$$$
>  <Structure>
COc1cc2ncc3c(c2cc1-c1cc(C)[nH]n1)n(-c1ncccc1F)c(=O)n3C

>  <IC50>
> 30 µM

$$$$
>  <Structure>
COc1cc2ncc3c(c2cc1-c1cnn(C)c1)n(-c1ncc(F)cn1)c(=O)n3C

>  <IC50>
> 30 µM

$$$$
>  <Structure>
COc1cc2ncc3c(c2cc1-c1cnn(C)c1)n(-c1c(F)cncc1OC)c(=O)n3C

>  <IC50>
> 30 µM

$$$$
>  <Structure>
COc1cc2ncc3c(c2cc1-c1cn[nH]c1)n(-c1ncccc1F)c(=O)n3C

>  <IC50>
> 30 µM

$$$$
>  <Structure>
COc1cc2ncc3c(c2cc1-c1cn[nH]c1)n(-c1ccnn1C)c(=O)n3C

>  <IC50>
> 30 µM

$$$$
>  <Structure>
COc1cc2ncc3c(c2cc1-c1cn[nH]c1)n(-c1ccncc1OC)c(=O)n3C

>  <IC50>
> 30 µM

$$$$
>  <Structure>
COc1cc2ncc3c(c2cc1-c1cn[nH]c1)n(-c1cnn(C2CCOCC2)c1)c(=O)n3C

>  <IC50>
> 30 µM

$$$$

###

Entries and their IC50
target: purified human recombinant ATM (ataxia telangiectasia mutated), full length (Homo sapiens (Human), UniProt Q13315); assay: ATM kinase assay - determination of ATM inhibition (IC50 ATM), TR-FRET; assay type: biochemical; conditions: 10 μM ATP, substrate p53
Sequence (Q13315 whole entry, change not shown): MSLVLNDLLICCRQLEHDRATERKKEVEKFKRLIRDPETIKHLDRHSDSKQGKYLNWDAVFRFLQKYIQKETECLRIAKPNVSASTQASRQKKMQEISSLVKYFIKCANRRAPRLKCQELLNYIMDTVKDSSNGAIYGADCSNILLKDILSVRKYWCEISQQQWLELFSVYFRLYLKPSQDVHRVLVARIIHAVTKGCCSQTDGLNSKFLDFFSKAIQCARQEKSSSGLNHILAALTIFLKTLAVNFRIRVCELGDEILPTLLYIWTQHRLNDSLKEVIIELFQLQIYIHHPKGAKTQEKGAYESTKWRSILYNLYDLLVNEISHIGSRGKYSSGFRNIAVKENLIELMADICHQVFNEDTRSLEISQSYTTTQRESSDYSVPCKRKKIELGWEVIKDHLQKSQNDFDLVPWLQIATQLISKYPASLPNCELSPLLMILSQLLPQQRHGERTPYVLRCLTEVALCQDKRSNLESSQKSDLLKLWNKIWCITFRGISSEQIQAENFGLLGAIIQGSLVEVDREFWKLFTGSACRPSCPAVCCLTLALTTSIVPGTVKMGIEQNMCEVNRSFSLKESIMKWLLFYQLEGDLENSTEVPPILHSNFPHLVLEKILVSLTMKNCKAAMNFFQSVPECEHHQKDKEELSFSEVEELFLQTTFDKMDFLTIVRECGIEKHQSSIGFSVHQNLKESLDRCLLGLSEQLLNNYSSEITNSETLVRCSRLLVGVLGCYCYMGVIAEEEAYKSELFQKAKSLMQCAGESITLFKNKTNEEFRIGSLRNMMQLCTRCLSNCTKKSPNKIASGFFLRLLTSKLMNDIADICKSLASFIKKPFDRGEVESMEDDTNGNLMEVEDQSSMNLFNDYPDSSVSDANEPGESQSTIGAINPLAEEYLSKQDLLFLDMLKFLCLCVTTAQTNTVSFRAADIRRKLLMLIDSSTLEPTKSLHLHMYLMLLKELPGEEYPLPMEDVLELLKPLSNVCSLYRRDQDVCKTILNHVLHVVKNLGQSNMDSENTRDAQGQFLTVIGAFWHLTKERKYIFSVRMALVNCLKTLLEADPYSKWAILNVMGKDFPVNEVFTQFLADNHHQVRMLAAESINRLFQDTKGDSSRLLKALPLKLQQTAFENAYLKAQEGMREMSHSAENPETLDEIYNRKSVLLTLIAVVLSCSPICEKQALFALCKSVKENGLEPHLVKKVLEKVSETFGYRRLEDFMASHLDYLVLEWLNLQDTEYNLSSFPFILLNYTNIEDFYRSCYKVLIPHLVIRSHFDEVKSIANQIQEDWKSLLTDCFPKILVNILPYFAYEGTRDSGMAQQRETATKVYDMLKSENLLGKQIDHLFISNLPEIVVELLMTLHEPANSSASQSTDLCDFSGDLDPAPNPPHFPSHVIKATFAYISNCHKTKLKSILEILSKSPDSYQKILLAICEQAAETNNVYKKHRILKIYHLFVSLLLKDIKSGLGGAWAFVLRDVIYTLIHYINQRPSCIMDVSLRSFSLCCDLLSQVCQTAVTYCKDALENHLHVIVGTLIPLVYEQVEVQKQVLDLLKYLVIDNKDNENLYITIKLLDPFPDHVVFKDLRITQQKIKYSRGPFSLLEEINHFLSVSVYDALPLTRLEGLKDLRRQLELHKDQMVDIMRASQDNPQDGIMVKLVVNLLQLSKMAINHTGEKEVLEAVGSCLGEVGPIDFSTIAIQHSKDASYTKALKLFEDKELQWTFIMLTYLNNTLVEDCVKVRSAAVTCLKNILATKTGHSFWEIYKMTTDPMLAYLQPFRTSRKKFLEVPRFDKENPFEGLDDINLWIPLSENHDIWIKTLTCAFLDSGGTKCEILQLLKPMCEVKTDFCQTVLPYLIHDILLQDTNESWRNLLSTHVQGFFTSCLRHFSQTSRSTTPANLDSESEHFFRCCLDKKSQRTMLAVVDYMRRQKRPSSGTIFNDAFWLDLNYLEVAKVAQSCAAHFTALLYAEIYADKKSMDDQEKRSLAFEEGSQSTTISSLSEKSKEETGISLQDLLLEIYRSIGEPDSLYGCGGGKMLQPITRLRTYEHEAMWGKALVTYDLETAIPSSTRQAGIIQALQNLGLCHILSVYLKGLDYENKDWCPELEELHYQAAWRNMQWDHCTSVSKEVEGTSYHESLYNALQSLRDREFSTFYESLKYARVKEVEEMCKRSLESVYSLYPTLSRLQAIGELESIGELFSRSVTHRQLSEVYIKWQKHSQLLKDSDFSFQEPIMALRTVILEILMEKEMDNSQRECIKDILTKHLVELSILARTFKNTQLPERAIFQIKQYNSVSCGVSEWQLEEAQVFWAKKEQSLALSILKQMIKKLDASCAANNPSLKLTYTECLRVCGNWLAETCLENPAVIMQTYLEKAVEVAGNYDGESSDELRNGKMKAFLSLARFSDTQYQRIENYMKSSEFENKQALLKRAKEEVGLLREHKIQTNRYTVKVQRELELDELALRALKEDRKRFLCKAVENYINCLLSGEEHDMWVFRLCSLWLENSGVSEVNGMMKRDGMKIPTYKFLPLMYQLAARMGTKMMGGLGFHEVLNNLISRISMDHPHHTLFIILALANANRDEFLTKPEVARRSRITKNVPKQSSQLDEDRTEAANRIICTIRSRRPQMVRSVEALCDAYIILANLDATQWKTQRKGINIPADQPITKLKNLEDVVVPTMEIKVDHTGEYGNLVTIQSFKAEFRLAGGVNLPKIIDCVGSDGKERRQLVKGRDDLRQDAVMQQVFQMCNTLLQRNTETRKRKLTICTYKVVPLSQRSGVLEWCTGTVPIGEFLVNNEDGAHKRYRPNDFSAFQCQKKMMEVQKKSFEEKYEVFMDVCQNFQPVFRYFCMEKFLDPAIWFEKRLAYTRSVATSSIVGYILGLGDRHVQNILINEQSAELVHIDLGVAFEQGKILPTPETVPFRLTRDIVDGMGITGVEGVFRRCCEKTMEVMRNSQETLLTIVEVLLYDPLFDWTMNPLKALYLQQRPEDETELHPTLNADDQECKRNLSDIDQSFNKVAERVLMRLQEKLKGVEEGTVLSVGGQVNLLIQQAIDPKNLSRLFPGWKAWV
Readout Kind: IC50

>  <Structure>
COc1cc2ncc3c(c2cc1-c1cnn(C)c1)n(-c1ccncc1)c(=O)n3C

>  <Measured Value>
< 10 nM

$$$$
>  <Structure>
COCCOc1cnc(-n2c(=O)n(C)c3cnc4cc(OC)c(-c5cnn(C)c5)cc4c32)c(F)c1

>  <Measured Value>
< 1 nM

$$$$
>  <Structure>
COc1cnc(-n2c(=O)n(C)c3cnc4cc(OC)c(-c5cn(C)nn5)cc4c32)c(F)c1

>  <Measured Value>
< 10 nM

$$$$
>  <Structure>
CNC(=O)c1cnc(-n2c(=O)n(C)c3cnc4cc(OC)c(-c5cn(C)nc5C)cc4c32)c(F)c1

>  <Measured Value>
< 1 nM

$$$$
>  <Structure>
CCn1cc(-c2cc3c(cc2OC)ncc2c3n(-c3ccncc3F)c(=O)n2C)cn1

>  <Measured Value>
< 1 nM

$$$$
>  <Structure>
COc1cc2ncc3c(c2cc1-c1cnc2nc(C)[nH]c2c1)n(-c1cn(C)nc1C)c(=O)n3C

>  <Measured Value>
< 1 nM

$$$$
>  <Structure>
COc1cc2ncc3c(c2cc1-c1cn[nH]c1)n(-c1csc(C)n1)c(=O)n3C

>  <Measured Value>
< 10 nM

$$$$
>  <Structure>
COc1cc2ncc3c(c2cc1-c1cn(C)nn1)n(-c1c(F)cncc1OC)c(=O)n3C

>  <Measured Value>
< 10 nM

$$$$
>  <Structure>
COc1cc2ncc3c(c2cc1-c1cn[nH]c1)n(-c1cnn(C)c1)c(=O)n3C

>  <Measured Value>
< 1 nM

$$$$
>  <Structure>
COc1cc2ncc3c(c2cc1-c1cnn(C)c1)n(-c1ccncc1C1CC1)c(=O)n3C

>  <Measured Value>
< 50 nM

$$$$
>  <Structure>
COc1cc2ncc3c(c2cc1-c1cnn(C)c1)n(-c1ncc(N2CCNCC2)cc1F)c(=O)n3C

>  <Measured Value>
< 10 nM

$$$$
>  <Structure>
COc1cc2ncc3c(c2cc1-c1cnn(C)c1)n(-c1ccncc1C)c(=O)n3C

>  <Measured Value>
< 10 nM

$$$$
>  <Structure>
COc1cc2ncc3c(c2cc1-c1cnn(C)c1)n(-c1c(C)n[nH]c1C)c(=O)n3C

>  <Measured Value>
< 10 nM

$$$$
>  <Structure>
COc1cc2ncc3c(c2cc1-c1cnn(C)c1)n(-c1ncc(OCS(C)(=O)=O)cc1F)c(=O)n3C

>  <Measured Value>
< 1 nM

$$$$
>  <Structure>
CCn1cc(-c2cc3c(cc2OC)ncc2c3n(-c3c(C)cncc3F)c(=O)n2C)cn1

>  <Measured Value>
< 1 nM

$$$$
>  <Structure>
CNC(=O)c1cnc(-n2c(=O)n(C)c3cnc4cc(OC)c(-c5cnn(C)c5)cc4c32)c(F)c1

>  <Measured Value>
< 10 nM

$$$$

###

molecular target: purified human recombinant ATM (ataxia telangiectasia mutated), full length (Homo sapiens (Human), UniProt Q13315); experiment: ATM kinase assay - determination of ATM inhibition (IC50 ATM), TR-FRET; type: biochemical; details: 10 μM ATP, substrate p53
pIC50: −log10 of the molar value.
Reported pIC50 values for a set of molecules
Readout Kind: pIC50

>  <Structure>
COc1cc2ncc3c(c2cc1-c1cnn(C)c1)n(-c1ncc(OC(F)F)cc1F)c(=O)n3C

>  <Measured Value>
> 9.00

$$$$
>  <Structure>
CCn1cc(-c2cc3c(cc2OC)ncc2c3n(-c3ccncc3C)c(=O)n2C)cn1

>  <Measured Value>
> 8.00

$$$$
>  <Structure>
COc1cc2ncc3c(c2cc1-c1cnn(C)c1)n(-c1cn(C)cn1)c(=O)n3C

>  <Measured Value>
> 8.00

$$$$
>  <Structure>
COc1cc2ncc3c(c2cc1-c1cnn(C)c1)n(-c1ccncc1OC)c(=O)n3C

>  <Measured Value>
> 8.00

$$$$
>  <Structure>
COc1cc2ncc3c(c2cc1-c1cn(C)nc1C)n(-c1c(C)cncc1F)c(=O)n3C

>  <Measured Value>
> 9.00

$$$$
>  <Structure>
COc1cc2ncc3c(c2cc1-c1cn(C)nc1C)n(-c1ncccc1F)c(=O)n3C

>  <Measured Value>
> 9.00

$$$$
>  <Structure>
COc1cc2ncc3c(c2cc1-c1cnn(C)c1)n(-c1cncnc1)c(=O)n3C

>  <Measured Value>
> 7.30

$$$$
>  <Structure>
COc1cc2ncc3c(c2cc1-c1cn[nH]c1)n(-c1ccncc1C)c(=O)n3C

>  <Measured Value>
> 8.00

$$$$
